Measured AUC(0-inf), listed per entry for reference.
assay: AUC (infinity) in rat at 40 mg/kg, po administered QD measured after 1 day; assay type: ADME, organism-based; parameters: time infinity, dose 40 mg/kg, route oral; conditions: plasma

Past entries and their recorded results:
{"COMPOUND": "COc1nc(N)nc2c1ncn2[C@@H]1O[C@@H]2COP(=O)(OC3CCC3)O[C@H]2[C@@]1(C)F (stereo partly drawn)", "AUC(0-inf)": "9500 ng·h/mL"}
{"COMPOUND": "COc1nc(N)nc2c1ncn2[C@@H]1O[C@@H]2COP(=O)(OC3CCCC3)O[C@H]2[C@@]1(C)F (stereo partly drawn)", "AUC(0-inf)": "690 ng·h/mL"}

Next item in the queue.
// query Need AUC(0-inf) of CC(C)Oc1nc(N)nc2c1ncn2[C@@H]1O[C@@H]2COP(=O)(OC3CCCC3)O[C@H]2[C@@]1(C)F (stereo partly drawn) , thanks.
// result 770 ng·h/mL

###

assay: Half life in simulated intestinal fluid; type: physicochemical
MEASUREMENT KIND: half-life

Past entries and their recorded results:
{"COMPOUND": "CCOc1nc(N)nc2c1ncn2[C@@H]1O[C@@H]2COP(=O)(OC(C)C)O[C@H]2[C@@]1(C)F (stereo partly drawn)", "half-life": "> 1200 min"}
{"COMPOUND": "COc1nc(N)nc2c1ncn2[C@@H]1O[C@@H]2COP(=O)(OC(C)C)O[C@H]2[C@@]1(C)F (stereo partly drawn)", "half-life": "> 1200 min"}
{"COMPOUND": "CC(C)Oc1nc(N)nc2c1ncn2[C@@H]1O[C@@H]2COP(=O)(OC(C)C)O[C@H]2[C@@]1(C)F (stereo partly drawn)", "half-life": "> 1200 min"}
{"COMPOUND": "CC(C)Oc1nc(N)nc2c1ncn2[C@@H]1O[C@@H]2COP(=O)(OC3CCC3)O[C@H]2[C@@]1(C)F (stereo partly drawn)", "half-life": "252 min"}
{"COMPOUND": "CC(C)Oc1nc(N)nc2c1ncn2[C@@H]1O[C@@H]2COP(=O)(OC3CCCC3)O[C@H]2[C@@]1(C)F (stereo partly drawn)", "half-life": "900 min"}

// query Need half-life of COc1nc(N)nc2c1ncn2[C@@H]1O[C@H](COP(=O)(N[C@@H](C)C(=O)OC(C)C)Oc2ccccc2)[C@@H](O)[C@@]1(C)F (stereo partly drawn) , thanks.
// result > 1200 min

// query Need half-life of COc1nc(N)nc2c1ncn2[C@@H]1O[C@@H]2COP(=O)(OC3CCC3)O[C@H]2[C@@]1(C)F (stereo partly drawn) , thanks.
// result < 360 min

// query Need half-life of COc1nc(N)nc2c1ncn2[C@@H]1O[C@@H]2COP(=O)(OC3CCCC3)O[C@H]2[C@@]1(C)F (stereo partly drawn) , thanks.
// result 840 min

###

Measured Tmax, listed per entry for reference.
test: Tmax in rat at 40 mg/kg, po administered QD measured after 1 day; assay type: ADME, organism-based; parameters: dose 40 mg/kg, route oral; details: in vivo
State the result as a value with its unit after it.

Past entries and their recorded results:
{"MOLECULE": "CC(C)Oc1nc(N)nc2c1ncn2[C@@H]1O[C@@H]2COP(=O)(OC3CCCC3)O[C@H]2[C@@]1(C)F (stereo partly drawn)", "Tmax": "3.67 h"}
{"MOLECULE": "COc1nc(N)nc2c1ncn2[C@@H]1O[C@@H]2COP(=O)(OC3CCC3)O[C@H]2[C@@]1(C)F (stereo partly drawn)", "Tmax": "1.67 h"}

Next item in the queue.
// query Need Tmax of COc1nc(N)nc2c1ncn2[C@@H]1O[C@@H]2COP(=O)(OC3CCCC3)O[C@H]2[C@@]1(C)F (stereo partly drawn) , thanks.
// result 1.67 h

###

Measured half-life, listed per entry for reference.
experiment: Half life in simulated gastric fluid; format: physicochemical
Response body: numeric value in h, unit text excluded.

{"COMPOUND": "COc1nc(N)nc2c1ncn2[C@@H]1O[C@H](COP(=O)(N[C@@H](C)C(=O)OC(C)C)Oc2ccccc2)[C@@H](O)[C@@]1(C)F (stereo partly drawn)", "half-life / h": 16}

// query Need half-life of COc1nc(N)nc2c1ncn2[C@@H]1O[C@@H]2COP(=O)(OC3CCCC3)O[C@H]2[C@@]1(C)F (stereo partly drawn) , thanks.
// result 9.2

// query Need half-life of CC(C)Oc1nc(N)nc2c1ncn2[C@@H]1O[C@@H]2COP(=O)(OC3CCC3)O[C@H]2[C@@]1(C)F (stereo partly drawn) , thanks.
// result 2.6

// query Need half-life of CC(C)Oc1nc(N)nc2c1ncn2[C@@H]1O[C@@H]2COP(=O)(OC3CCCC3)O[C@H]2[C@@]1(C)F (stereo partly drawn) , thanks.
// result 9

###

experiment: Cytotoxicity against human HuH7 cells; type: cell-based; conditions: Huh-7 cells
Measured CC90, listed per entry for reference.

{"MOLECULE": "CC(C)Oc1nc(N)nc2c1ncn2[C@@H]1O[C@@H]2COP(=O)(OCc3ccccc3)O[C@H]2[C@@]1(C)F (stereo partly drawn)", "RESULT": "> 100 µM"}
{"MOLECULE": "CC(C)Oc1nc(N)nc2c1ncn2[C@@H]1O[C@@H]2COP(=O)(OC3CCCC3)O[C@H]2[C@@]1(C)F (stereo partly drawn)", "RESULT": "> 100 µM"}
{"MOLECULE": "CC(C)Oc1nc(N)nc2c1ncn2[C@@H]1O[C@@H]2COP(=O)(OC3CCC3)O[C@H]2[C@@]1(C)F (stereo partly drawn)", "RESULT": "> 100 µM"}
{"MOLECULE": "COc1nc(N)nc2c1ncn2[C@@H]1O[C@@H]2COP(=O)(OC3CCCC3)O[C@H]2[C@@]1(C)F (stereo partly drawn)", "RESULT": "> 100 µM"}
{"MOLECULE": "CCOc1nc(N)nc2c1ncn2[C@@H]1O[C@@H]2COP(=O)(OC(C)C)O[C@H]2[C@@]1(C)F (stereo partly drawn) [PSI-352938]", "RESULT": "> 100 µM"}

// query Need CC90 of CC(C)Oc1nc(N)nc2c1ncn2[C@@H]1O[C@@H]2COP(=O)(OC(C)C)O[C@H]2[C@@]1(C)F (stereo partly drawn) , thanks.
// result > 100 µM

// query Need CC90 of COc1nc(N)nc2c1ncn2[C@@H]1O[C@@H]2COP(=O)(OC(C)C)O[C@H]2[C@@]1(C)F (stereo partly drawn) , thanks.
// result > 100 µM

// query Need CC90 of CCOP1(=O)OC[C@H]2O[C@@H](n3cnc4c(OC)nc(N)nc43)[C@](C)(F)[C@@H]2O1 (stereo partly drawn) , thanks.
// result > 10 µM

// query Need CC90 of COc1nc(N)nc2c1ncn2[C@@H]1O[C@@H]2COP(=O)(OC3CCC3)O[C@H]2[C@@]1(C)F (stereo partly drawn) , thanks.
// result > 100 µM

// query Need CC90 of COc1nc(N)nc2c1ncn2[C@@H]1O[C@@H]2COP(=O)(OCc3ccccc3)O[C@H]2[C@@]1(C)F (stereo partly drawn) , thanks.
// result > 10 µM

// query Need CC90 of COc1nc(N)nc2c1ncn2[C@@H]1O[C@@H]2COP(=O)(OC3CCCCC3)O[C@H]2[C@@]1(C)F (stereo partly drawn) , thanks.
// result > 10 µM

// query Need CC90 of COc1nc(N)nc2c1ncn2[C@@H]1O[C@@H]2COP(=O)(O)O[C@H]2[C@@]1(C)F , thanks.
// result > 100 µM

// query Need CC90 of CCCOP1(=O)OC[C@H]2O[C@@H](n3cnc4c(OCC)nc(N)nc43)[C@](C)(F)[C@@H]2O1 (stereo partly drawn) , thanks.
// result > 100 µM

###

assay: Half life in rat plasma; assay type: ADME, cell-free
Measured half-life, listed per entry for reference.

Past entries and their recorded results:
{"COMPOUND": "CC(C)Oc1nc(N)nc2c1ncn2[C@@H]1O[C@@H]2COP(=O)(OC3CCCC3)O[C@H]2[C@@]1(C)F (stereo partly drawn)", "half-life": "> 24 h"}
{"COMPOUND": "CC(C)Oc1nc(N)nc2c1ncn2[C@@H]1O[C@@H]2COP(=O)(OC3CCC3)O[C@H]2[C@@]1(C)F (stereo partly drawn)", "half-life": "8.6 h"}
{"COMPOUND": "CCOc1nc(N)nc2c1ncn2[C@@H]1O[C@@H]2COP(=O)(OC(C)C)O[C@H]2[C@@]1(C)F (stereo partly drawn)", "half-life": "> 24 h"}
{"COMPOUND": "COc1nc(N)nc2c1ncn2[C@@H]1O[C@@H]2COP(=O)(OC3CCC3)O[C@H]2[C@@]1(C)F (stereo partly drawn)", "half-life": "15.8 h"}
{"COMPOUND": "CC(C)Oc1nc(N)nc2c1ncn2[C@@H]1O[C@@H]2COP(=O)(OC(C)C)O[C@H]2[C@@]1(C)F (stereo partly drawn)", "half-life": "> 24 h"}

// query Need half-life of COc1nc(N)nc2c1ncn2[C@@H]1O[C@H](COP(=O)(N[C@@H](C)C(=O)OC(C)C)Oc2ccccc2)[C@@H](O)[C@@]1(C)F (stereo partly drawn) , thanks.
// result < 0.02 h

// query Need half-life of COc1nc(N)nc2c1ncn2[C@@H]1O[C@@H]2COP(=O)(OC3CCCC3)O[C@H]2[C@@]1(C)F (stereo partly drawn) , thanks.
// result 22 h

// query Need half-life of COc1nc(N)nc2c1ncn2[C@@H]1O[C@@H]2COP(=O)(OC(C)C)O[C@H]2[C@@]1(C)F (stereo partly drawn) , thanks.
// result 5.6 h
